RUN DESCRIPTION: qHTS Assay for Inhibitors of Hepatitis C Virus (HCV)
DETAILS: Huh7.5.1 HCVcc-Cre infection, luciferase reporter, 44 h; series mostly up to 41.8 µM
Hit rate of the full screen: of about 340,000 compounds, about 12,000 (3.5%) were called active. Another 18% or so got no clear call; they are omitted. Calls follow the shape of the dose curve; as a rule, active = well fitted inhibition curve with a large enough effect; inconclusive = small, poorly fitted or top-dose-only effect, or another doubt; inactive = no such curve, though single readings can be large or run the other way. Many of the other results were omitted from the sample, so actives are more common in it than they were.
Can you answer with just one of these options? active, inactive

See these solved cases before continuing.
Cc1cc(C(=O)CSc2nc(N)cc(=O)[nH]2)c(C)n1CCc1ccc(Cl)cc1 ... active
Cc1ccc(NC(=O)C(C)OC(=O)C2CC3CCCC(C2)C3=O)cc1S(=O)(=O)N1CCOCC1 (stereo not drawn) ... inactive
O=C(/C=C/c1ccc(F)cc1)Nc1cccc(S(=O)(=O)Nc2cccc(C(F)(F)F)c2)c1 ... inactive
CCN(C[C@H]1N[C@@](CC)(C(=O)OC)[C@H]2C(=O)N(Cc3ccccc3)C(=O)[C@@H]12)S(=O)(=O)c1ccccc1 ... inactive
COc1ccccc1N1CCN(C(=O)C2Cc3ccccc3CN2C(=O)c2ccco2)CC1 (stereo not drawn) ... inactive
Cc1cc(=O)[nH]c(SCc2ccc(Cl)cc2)n1 ... inactive

Called result for "COC(=O)[C@]1(Cc2ccccc2)N[C@H](CN(C)S(=O)(=O)c2ccc(OC(F)(F)F)cc2)[C@@H]2C(=O)N(Cc3ccccc3)C(=O)[C@@H]21"
active

Answer briefly: the call reported for "COC(=O)[C@]1(Cc2ccccc2)N[C@H](CN(C)S(=O)(=O)c2ccc(F)cc2)[C@@H]2C(=O)N(Cc3ccccc3)C(=O)[C@@H]21" in this assay.
inactive

====

RUN DESCRIPTION: qHTS Assay for Inhibitors of Hepatitis C Virus (HCV)
DETAILS: Huh7.5.1 HCVcc-Cre infection, luciferase reporter, 44 h; series mostly up to 41.8 µM
Among all 340,000 compounds or so, about 12,000 (3.5%) were called active. Another 18% or so got no clear call; they are omitted. The call rests on the fitted dose curve; in most records, active means well fitted inhibition curve with a large enough effect; inconclusive means small, poorly fitted or top-dose-only effect, or another doubt; inactive means no such curve, though single readings can be large or run the other way. This is one part of a sample in which actives are shown more often than they occur.
Just give me one of these, please: 1.0 = active, 0.0 = inactive

Record excerpt, results attached:
c1ccc(-c2noc(-c3cccs3)n2)nc1 ... 0.0
C/C(=N/Nc1nc(-c2ccccc2)c(CC(=O)O)s1)c1ccccc1 ... 1.0
COc1ccc(OC)c(S(=O)(=O)Nc2c(C)nn(C)c2C)c1 ... 0.0

For "COc1cc(CC(=O)NCc2cccs2)cc(OC)c1OC" , which call appears in the assay record?
0.0

Short answer needed: outcome of this test for "Cc1ccc(S(=O)(=O)Nc2ccc(F)c(S(=O)(=O)N3CCOCC3)c2)cc1" ?
0.0

====

RUN DESCRIPTION: qHTS Assay for Inhibitors of Hepatitis C Virus (HCV)
DETAILS: Huh7.5.1 HCVcc-Cre infection, luciferase reporter, 44 h; series mostly up to 41.8 µM
Among all 340,000 compounds or so, about 12,000 (3.5%) were called active. Not shown: some 18% with an inconclusive outcome. Calls come from the whole dose curve; as a rule, active = well fitted inhibition curve with a large enough effect; inconclusive = small, poorly fitted or top-dose-only effect, or another doubt; inactive = no such curve, though single readings can be large or run the other way. This excerpt belongs to a sample that is enriched for actives.
The reply should name one outcome from active, inactive

Answered examples (2):
CCSc1nnc(NC(=O)c2ccc(C)cc2)s1 ... inactive
COC(=O)C1CC2=C(CC(C)(C)CC2=O)N(c2ccccc2)C1=O (configuration not stated) ... inactive

# lookup: test call for "COc1ccc2ccccc2c1/C=N/NC(=O)c1cc(C)[nH]n1"
inactive

Origin of values: PubChem BioAssay AID651820
